Molecular target: T1, mouse NMUR1-CTG (mouse, UniProt O55040 1-428)
T1 sequence (looked up): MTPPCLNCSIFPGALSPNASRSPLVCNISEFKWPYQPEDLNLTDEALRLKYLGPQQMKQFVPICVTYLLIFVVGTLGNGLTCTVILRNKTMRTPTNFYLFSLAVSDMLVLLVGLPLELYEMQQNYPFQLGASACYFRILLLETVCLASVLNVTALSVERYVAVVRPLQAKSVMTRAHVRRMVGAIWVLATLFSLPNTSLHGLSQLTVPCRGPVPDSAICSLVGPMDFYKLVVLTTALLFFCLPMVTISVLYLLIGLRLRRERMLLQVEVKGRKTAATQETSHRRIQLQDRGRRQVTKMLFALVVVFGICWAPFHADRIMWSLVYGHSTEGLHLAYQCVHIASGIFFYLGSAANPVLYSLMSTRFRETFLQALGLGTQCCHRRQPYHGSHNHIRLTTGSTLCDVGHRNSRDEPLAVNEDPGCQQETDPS
Assay: cell-based or functional assay
Starred links: 1 amine or outer side, 2 acyl side, 3 side chain; linkers in the order of their positions; H or OH if unused. Non-standard residues stand in square brackets, D forms with d. No end group written: not given here. *: point of attachment. Ttds = 1-amino-4,7,10-trioxa-13-tridecanamine succinimic acid spacer, O=C(CCC(=O)[*:2])NCCCOCCOCCOCCCN[*:1]; (PEG)2 40 kDa = branched PEG of 40 kDa linked via the Cys side-chain thiol (code C2 = Cys(PEG)2 40 kDa); Cholesteroyl = cholesterol linked to a cysteine residue via the side-chain thiol; Succinimide(1-Et,3-yl) = CCN1C(=O)CC(*)C1=O; Palmitoyl = CCCCCCCCCCCCCCCC(=O)*
Quick list: EC50 (FLIPR) per entry.
Expressed in nM, but write only the number.

Solved cases below.
binder | output unit | EC50 (FLIPR)
Ac-C((PEG)2 40 kDa)FQSPFASQSRGYFLFRPRN-NH2 [NMU20] | nM | 480
Ac-C(Cholesteroyl)GYFLFRPRN-NH2 [NMU11] | nM | 600
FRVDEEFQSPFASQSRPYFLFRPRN-NH2 [NMU4] | nM | 11.6
Ac-C((PEG)2 40 kDa)[Ttds]FLFRPRN-NH2 [NMU16] | nM | 651
Ac-C((PEG)2 40 kDa)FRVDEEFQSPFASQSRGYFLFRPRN-NH2 [NMU12] | nM | 407
Ac-C((PEG)2 40 kDa)ASQSRGYFLFRPRN-NH2 [NMU18] | nM | 693
Ac-C(Succinimide(1-Et,3-yl))ASQSRGYFLFRPRN-NH2 (SMILES CCN1C(=O)CC(SC[C@H](NC(C)=O)C(=O)N[C@@H](C)C(=O)N[C@@H](CO)C(=O)N[C@@H](CCC(N)=O)C(=O)N[C@@H](CO)C(=O)N[C@@H](CCCNC(=N)N)C(=O)NCC(=O)N[C@@H](Cc2ccc(O)cc2)C(=O)N[C@@H](Cc2ccccc2)C(=O)N[C@@H](CC(C)C)C(=O)N[C@@H](Cc2ccccc2)C(=O)N[C@@H](CCCNC(=N)N)C(=O)N2CCC[C@H]2C(=O)N[C@@H](CCCNC(=N)N)C(=O)N[C@@H](CC(N)=O)C(N)=O)C1=O) [NMU17] | nM | 2.9
Ac-C(PEG 20 kDa)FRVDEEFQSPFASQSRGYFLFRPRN-NH2 [NMU21] | nM | 56.3

q: Specify measured EC50 (FLIPR) for GYFLFRPRN-NH2 [NMU3] .
a: 4.7

q: Specify measured EC50 (FLIPR) for Ac-C((PEG)2 40 kDa)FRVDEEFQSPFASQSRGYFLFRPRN-NH2 [NMU9] .
a: 1000

q: Specify measured EC50 (FLIPR) for Ac-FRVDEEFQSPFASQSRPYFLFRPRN-NH2 [NMU5] .
a: 11.9

q: Specify measured EC50 (FLIPR) for Ac-C(Succinimide(1-Et,3-yl))[Ttds]FLFRPRN-NH2 (SMILES CCN1C(=O)CC(SC[C@H](NC(C)=O)C(=O)NCCCOCCOCCOCCCNC(=O)CCC(=O)N[C@@H](Cc2ccccc2)C(=O)N[C@@H](CC(C)C)C(=O)N[C@@H](Cc2ccccc2)C(=O)N[C@@H](CCCNC(=N)N)C(=O)N2CCC[C@H]2C(=O)N[C@@H](CCCNC(=N)N)C(=O)N[C@@H](CC(N)=O)C(N)=O)C1=O) [NMU15] .
a: 4

q: Specify measured EC50 (FLIPR) for Palmitoyl-C(Succinimide(1-Et,3-yl))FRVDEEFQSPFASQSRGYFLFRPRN-NH2 [NMU24] .
a: 591

Cited source for all entries: patent US20070244048A1
